Test system: SF-539
Test: NCI tumour cell line growth inhibition, 48 h
Activity calls are given as the source filed them. Rule as the data show it: active = GI50 up to about 1.1 µM and inactive = higher.
Tick one outcome: t = active, f = inactive

Completed entries (count: 2):
molecule: COCc1nc(N)nc(N2N=C(C)CC2(C)C)n1
answerLabel: f
--
molecule: C/C=C(/I)CBr
answerLabel: f

(Q) Per the records of this test, what outcome belongs to CC1=NN(C(=O)CC(=O)N(C(=O)c2ccccc2)c2ccc(Cl)cc2)C(=O)C1/N=N/c1ccc([N+](=O)[O-])cc1 (stereo not given) ?
(A) f

(Q) What classification did C=CCOC(C)n1c(C)cc(=O)n(C(C)OCC=C)c1=O (stereo not given) end up with in this test?
(A) f

(Q) What did the test return for CCC1(OC(=O)CN)C(=O)OCc2c1cc1n(c2=O)Cc2cc3ccccc3nc2-1 (stereo not given) ?
(A) t

(Q) What was the test verdict on COc1cc2[nH]c3c(c2cc1OC)CCN[C@@]31CC[C@@]2(CC3c4c(cc(OC)c(O)c42)CCN3C)C[C@@H]1OC (stereo not given in full) ?
(A) f
